# System tested: Caspase-6 (Homo sapiens, UniProt P55212)
# Sequence (P55212 24-179 limits assumed): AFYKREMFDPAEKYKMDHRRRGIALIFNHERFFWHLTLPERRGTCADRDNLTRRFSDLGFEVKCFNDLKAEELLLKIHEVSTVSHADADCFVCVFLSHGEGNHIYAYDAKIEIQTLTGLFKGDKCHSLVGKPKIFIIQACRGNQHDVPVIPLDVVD
# Sequence (P55212 194-293 limits assumed): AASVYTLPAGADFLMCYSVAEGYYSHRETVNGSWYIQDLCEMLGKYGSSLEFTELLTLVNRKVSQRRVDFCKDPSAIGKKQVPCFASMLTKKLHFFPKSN
# Assay remarks: Inhibition of human recombinant caspase 6
Measured metric: IC50
Answers without a unit are incomplete; give the number and then its unit.

Recorded result, O=C1C(=O)N(Cc2ccc(OCCF)cc2)c2ccc(S(=O)(=O)N3CCC[C@H]3COc3ccccc3)cc21 , IC50: 3.7 µM

---

# System tested: Caspase-8 (Homo sapiens)
# Sequence (Q14790 217-374 limits assumed): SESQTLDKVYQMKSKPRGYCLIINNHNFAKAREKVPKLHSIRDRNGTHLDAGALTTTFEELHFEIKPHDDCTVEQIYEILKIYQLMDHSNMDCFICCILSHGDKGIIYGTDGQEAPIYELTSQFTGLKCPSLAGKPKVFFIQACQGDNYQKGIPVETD
# Sequence (Q14790 385-479 limits assumed): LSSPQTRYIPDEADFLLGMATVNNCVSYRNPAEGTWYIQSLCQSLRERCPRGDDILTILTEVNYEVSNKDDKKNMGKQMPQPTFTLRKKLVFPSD
# Assay remarks: Inhibition of human recombinant caspase 8
Measured metric: IC50

For this compound ( O=C1C(=O)N(Cc2ccc(OCCF)cc2)c2ccc(S(=O)(=O)N3CCC[C@H]3COc3ccccc3)cc21 ), measured IC50 is > 50 µM
